Measured on: TDP-43 (Homo sapiens, UniProt Q13148 1-414)
Sequence (Q13148 whole entry): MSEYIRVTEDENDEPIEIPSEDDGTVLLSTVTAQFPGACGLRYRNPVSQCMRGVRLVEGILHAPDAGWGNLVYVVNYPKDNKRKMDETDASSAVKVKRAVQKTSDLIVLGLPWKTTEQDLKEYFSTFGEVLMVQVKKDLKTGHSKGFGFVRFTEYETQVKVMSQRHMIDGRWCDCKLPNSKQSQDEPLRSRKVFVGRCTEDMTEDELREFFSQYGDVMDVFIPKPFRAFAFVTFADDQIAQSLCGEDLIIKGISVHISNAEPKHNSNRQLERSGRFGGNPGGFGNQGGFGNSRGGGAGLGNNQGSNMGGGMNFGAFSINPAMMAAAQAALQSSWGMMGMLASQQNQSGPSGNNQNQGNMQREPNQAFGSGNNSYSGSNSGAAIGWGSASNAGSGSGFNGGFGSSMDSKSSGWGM
Experimental details: RNA Bind-n-Seq with designed 260-mer pool; 25 mM Tris-HCl, 150 mM KCl, 3 mM MgCl2, BSA (printed 500 mg/mL), 20 units/mL SUPERase IN; pH not stated; 500 nM RNA pool, 1 h, 4 C; TDP-43 5, 50, 500 nM; high values mean tight binding
Condition notes: protein: recombinant; tags: SBP (GST cleaved off with PreScission; pGEX-GST-SBP)
The full ranking holds about 9,900 sequences; the median of “r (bound/input frequency ratio)” is about 0.7, and the highest 2% start at about 6.5. Many of the other results were omitted from the sample, so the highest values are more common in it than they were.
List of binding signal values.

Binder: ENSMUSG00000042529.419|Kcnj12|1:17;22:27;31:35;47:57;80:85;242:246 (ssRNA) RNA: GGGAGUUCUACAGUCCGACGAUCGCUUCGAUAUCCGCAUGCUACACACACACACACACACAACAACACACAGGCACACGAGGUCCCAGGCACACACAUACUGAAUGUCAGUGGCUUGGGUGCACACACGAGAGAGAGAGAGAGAGAGAGAGAGAGAGAGAGAGAGAGAGAGAGAGAGAGCUGCACAGGAUGAAGCAGCUGCCCUGAGCCCAUCUGGUGCUGUGCACCUGGUCCUUGUCCAGCCGAGGGCCUGGGGGCAGAAGAACACACCAUAGGGAGGCCCUUCAUACGGUGUCUGCCCUAUCUCUUGCGGUCGCACUAGUGUGGAAUUCUCGGGUGUCAAGG
binding signal: 6.45 R (bound/input frequency ratio)

With those in mind, consider the next binder.
What binding signal value was documented for this binder, ENSMUSG00000042529.422|Kcnj12|4:9;13:17;29:39;62:67;224:228 (ssRNA) RNA: GGGAGUUCUACAGUCCGACGAUCGCUUCGAUAUCCGCAUGCUAACAACACACAGGCACACGAGGUCCCAGGCACACACAUACUGAAUGUCAGUGGCUUGGGUGCACACACGAGAGAGAGAGAGAGAGAGAGAGAGAGAGAGAGAGAGAGAGAGAGAGAGAGCUGCACAGGAUGAAGCAGCUGCCCUGAGCCCAUCUGGUGCUGUGCACCUGGUCCUUGUCCAGCCGAGGGCCUGGGGGCAGAAGAACACACCAUAGGGAGGCCCUUCAUACGGUGUCUGCCCUAUGUGAGGUCAUAGAAUGUUCUCUUGCGGUCGCACUAGUGUGGAAUUCUCGGGUGUCAAGG ?
6.32 R (bound/input frequency ratio)
